# Test system: LNCaP tumor-bearing CB17-SCID mice
# Measurement notes: Biodistribution studies 24 h p.i.
# Format: in vivo
# Stated conditions: 177Lu-labelled, mean±SD, n=4-5
# maps each entry to its biodistribution: lung
Please respond with the number in % ID/g and leave the unit unwritten.

Worked examples, 3 compounds total:
[[record]]
compound = "CC(C)(C)[Si](O)(c1ccc(C(=O)NC[C@@H](NC(=O)CC[C@@H](C(=O)O)N2CCN(CC(=O)O)CCN(CC(=O)O)CCN(CC(=O)O)CC2)C(=O)N[C@H](CCCCNC(=O)CCC(=O)NCCC[C@@H](NC(=O)CC[C@H](NC(=O)N[C@@H](CCC(=O)O)C(=O)O)C(=O)O)C(=O)O)C(=O)O)cc1)C(C)(C)C"
reading_unit = "% ID/g"
quantitative_readout = 0.03

[[record]]
compound = "CC(C)(C)[Si](O)(c1ccc(C(=O)N[C@H](CCC(=O)NC[C@@H](NC(=O)CC[C@@H](C(=O)O)N2CCN(CC(=O)O)CCN(CC(=O)O)CCN(CC(=O)O)CC2)C(=O)NCCCCCC(=O)NCCC[C@@H](NC(=O)CC[C@H](NC(=O)N[C@@H](CCC(=O)O)C(=O)O)C(=O)O)C(=O)O)C(=O)O)cc1)C(C)(C)C"
reading_unit = "% ID/g"
quantitative_readout = 0.04

[[record]]
compound = "CC(C)(C)[Si](O)(c1ccc(C(=O)NC[C@@H](NC(=O)CC[C@@H](C(=O)O)N2CCN(CC(=O)O)CCN(CC(=O)O)CCN(CC(=O)O)CC2)C(=O)NCC(=O)N[C@@H](CCCCNC(=O)CCC(=O)NCCC[C@@H](NC(=O)CC[C@H](NC(=O)N[C@@H](CCC(=O)O)C(=O)O)C(=O)O)C(=O)O)C(=O)O)cc1)C(C)(C)C"
reading_unit = "% ID/g"
quantitative_readout = 0.04


Could you share which biodistribution: lung value was measured for CC(C)(C)[Si](F)(c1ccc(C(=O)NC[C@@H](NC(=O)CN2CCN(CC(=O)O)CCN(CC(=O)O)CCN(CC(=O)O)CC2)C(=O)N[C@H](CCCCNC(=O)CCC(=O)NCCC[C@@H](NC(=O)CC[C@H](NC(=O)N[C@@H](CCC(=O)O)C(=O)O)C(=O)O)C(=O)O)C(=O)O)cc1)C(C)(C)C [rhPSMA-10, reference compound] ?
0.05

# iterate: CC(C)(C)[Si](F)(c1ccc(C(=O)NC[C@@H](NC(=O)CC[C@@H](C(=O)O)N2CCN(CC(=O)O)CCN(CC(=O)O)CCN(CC(=O)O)CC2)C(=O)N[C@H](CCCCNC(=O)CCC(=O)NCCC[C@@H](NC(=O)CC[C@H](NC(=O)N[C@@H](CCC(=O)O)C(=O)O)C(=O)O)C(=O)O)C(=O)O)cc1)C(C)(C)C [rhPSMA-7.3, reference compound]
0.06

---

# maps each entry to its biodistribution: adrenals
# Test system: LNCaP tumor-bearing CB17-SCID mice
# Measurement notes: Biodistribution studies 24 h p.i.
# Format: in vivo
# Stated conditions: 177Lu-labelled, mean±SD, n=4-5
Please respond with the number in % ID/g and leave the unit unwritten.

Worked examples, 2 molecules total:
[[record]]
molecule = "CC(C)(C)[Si](O)(c1ccc(C(=O)NC[C@@H](NC(=O)CC[C@@H](C(=O)O)N2CCN(CC(=O)O)CCN(CC(=O)O)CCN(CC(=O)O)CC2)C(=O)N[C@H](CO)C(=O)NCCC(=O)NCCC(=O)NCCC[C@@H](NC(=O)CC[C@H](NC(=O)N[C@@H](CCC(=O)O)C(=O)O)C(=O)O)C(=O)O)cc1)C(C)(C)C"
reading_unit = "% ID/g"
quantitative_readout = 0.20

[[record]]
molecule = "O=C(O)CC[C@H](NC(=O)N[C@@H](CCCCNC(=O)CCCCCCC(=O)NCCCC[C@@H](NC(=O)[C@@H](Cc1ccccc1)NC(=O)[C@@H](Cc1ccc(O)c(I)c1)NC(=O)CCC(C(=O)O)N1CCN(CC(=O)O)CCN(CC(=O)O)CCN(CC(=O)O)CC1)C(=O)O)C(=O)O)C(=O)O (stereo partly drawn) [PSMA I&T, reference compound]"
reading_unit = "% ID/g"
quantitative_readout = 1.06


Lab note: next molecule to report on.
Could you share which biodistribution: adrenals value was measured for "CC(C)(C)[Si](O)(c1ccc(C(=O)NC[C@@H](NC(=O)CC[C@@H](C(=O)O)N2CCN(CC(=O)O)CCN(CC(=O)O)CCN(CC(=O)O)CC2)C(=O)NCC(=O)N[C@@H](CCCCNC(=O)CCC(=O)NCCC[C@@H](NC(=O)CC[C@H](NC(=O)N[C@@H](CCC(=O)O)C(=O)O)C(=O)O)C(=O)O)C(=O)O)cc1)C(C)(C)C" ?
0.05

---

# System: LNCaP tumor-bearing CB17-SCID mice
# Measurement notes: Biodistribution studies 24 h p.i.
# Format: in vivo
# Stated conditions: 177Lu-labelled, mean±SD, n=4-5
Parameter measured: biodistribution: heart (% ID/g)
Please respond with the number in % ID/g and leave the unit unwritten.

Worked examples, 5 compounds total:
[[record]]
compound = "CC(C)(C)[Si](O)(c1ccc(C(=O)NC[C@@H](NC(=O)CC[C@@H](C(=O)O)N2CCN(CC(=O)O)CCN(CC(=O)O)CCN(CC(=O)O)CC2)C(=O)NCC(=O)N[C@@H](CCCCNC(=O)CCC(=O)NCCC[C@@H](NC(=O)CC[C@H](NC(=O)N[C@@H](CCC(=O)O)C(=O)O)C(=O)O)C(=O)O)C(=O)O)cc1)C(C)(C)C"
quantitative_readout = 0.02

[[record]]
compound = "CC(C)(C)[Si](O)(c1ccc(C(=O)N[C@H](CCC(=O)NC[C@@H](NC(=O)CC[C@@H](C(=O)O)N2CCN(CC(=O)O)CCN(CC(=O)O)CCN(CC(=O)O)CC2)C(=O)NCCCCCC(=O)NCCC[C@@H](NC(=O)CC[C@H](NC(=O)N[C@@H](CCC(=O)O)C(=O)O)C(=O)O)C(=O)O)C(=O)O)cc1)C(C)(C)C"
quantitative_readout = 0.01

[[record]]
compound = "CC(C)(C)[Si](O)(c1ccc(C(=O)NC[C@@H](NC(=O)CC[C@@H](C(=O)O)N2CCN(CC(=O)O)CCN(CC(=O)O)CCN(CC(=O)O)CC2)C(=O)N[C@H](CO)C(=O)NCCC(=O)NCCC(=O)NCCC[C@@H](NC(=O)CC[C@H](NC(=O)N[C@@H](CCC(=O)O)C(=O)O)C(=O)O)C(=O)O)cc1)C(C)(C)C"
quantitative_readout = 0.02

[[record]]
compound = "CC(C)(C)[Si](F)(c1ccc(C(=O)NC[C@@H](NC(=O)CC[C@@H](C(=O)O)N2CCN(CC(=O)O)CCN(CC(=O)O)CCN(CC(=O)O)CC2)C(=O)N[C@H](CCCCNC(=O)CCC(=O)NCCC[C@@H](NC(=O)CC[C@H](NC(=O)N[C@@H](CCC(=O)O)C(=O)O)C(=O)O)C(=O)O)C(=O)O)cc1)C(C)(C)C [rhPSMA-7.3, reference compound]"
quantitative_readout = 0.03

[[record]]
compound = "O=C(O)CC[C@H](NC(=O)N[C@@H](CCCCNC(=O)[C@H](Cc1ccc2ccccc2c1)NC(=O)[C@H]1CC[C@H](CNC(=O)CN2CCN(CC(=O)O)CCN(CC(=O)O)CCN(CC(=O)O)CC2)CC1)C(=O)O)C(=O)O [PSMA-617, reference compound]"
quantitative_readout = 0.01


Could you share which biodistribution: heart value was measured for "CC(C)(C)[Si](O)(c1ccc(C(=O)NC[C@@H](NC(=O)CC[C@@H](C(=O)O)N2CCN(CC(=O)O)CCN(CC(=O)O)CCN(CC(=O)O)CC2)C(=O)N[C@H](CCCCNC(=O)CCC(=O)NCCC[C@@H](NC(=O)CC[C@H](NC(=O)N[C@@H](CCC(=O)O)C(=O)O)C(=O)O)C(=O)O)C(=O)O)cc1)C(C)(C)C" ?
0.01

# iterate: O=C(O)CC[C@H](NC(=O)N[C@@H](CCCCNC(=O)CCCCCCC(=O)NCCCC[C@@H](NC(=O)[C@@H](Cc1ccccc1)NC(=O)[C@@H](Cc1ccc(O)c(I)c1)NC(=O)CCC(C(=O)O)N1CCN(CC(=O)O)CCN(CC(=O)O)CCN(CC(=O)O)CC1)C(=O)O)C(=O)O)C(=O)O (some centres unmarked) [PSMA I&T, reference compound]
0.05

# iterate: CC(C)(C)[Si](F)(c1ccc(C(=O)NC[C@@H](NC(=O)CN2CCN(CC(=O)O)CCN(CC(=O)O)CCN(CC(=O)O)CC2)C(=O)N[C@H](CCCCNC(=O)CCC(=O)NCCC[C@@H](NC(=O)CC[C@H](NC(=O)N[C@@H](CCC(=O)O)C(=O)O)C(=O)O)C(=O)O)C(=O)O)cc1)C(C)(C)C [rhPSMA-10, reference compound]
0.03
